- System: EGFR (Human), P00533 [T790M/L858R]
- Sequence (P00533 whole entry T790M/L858R, looked up): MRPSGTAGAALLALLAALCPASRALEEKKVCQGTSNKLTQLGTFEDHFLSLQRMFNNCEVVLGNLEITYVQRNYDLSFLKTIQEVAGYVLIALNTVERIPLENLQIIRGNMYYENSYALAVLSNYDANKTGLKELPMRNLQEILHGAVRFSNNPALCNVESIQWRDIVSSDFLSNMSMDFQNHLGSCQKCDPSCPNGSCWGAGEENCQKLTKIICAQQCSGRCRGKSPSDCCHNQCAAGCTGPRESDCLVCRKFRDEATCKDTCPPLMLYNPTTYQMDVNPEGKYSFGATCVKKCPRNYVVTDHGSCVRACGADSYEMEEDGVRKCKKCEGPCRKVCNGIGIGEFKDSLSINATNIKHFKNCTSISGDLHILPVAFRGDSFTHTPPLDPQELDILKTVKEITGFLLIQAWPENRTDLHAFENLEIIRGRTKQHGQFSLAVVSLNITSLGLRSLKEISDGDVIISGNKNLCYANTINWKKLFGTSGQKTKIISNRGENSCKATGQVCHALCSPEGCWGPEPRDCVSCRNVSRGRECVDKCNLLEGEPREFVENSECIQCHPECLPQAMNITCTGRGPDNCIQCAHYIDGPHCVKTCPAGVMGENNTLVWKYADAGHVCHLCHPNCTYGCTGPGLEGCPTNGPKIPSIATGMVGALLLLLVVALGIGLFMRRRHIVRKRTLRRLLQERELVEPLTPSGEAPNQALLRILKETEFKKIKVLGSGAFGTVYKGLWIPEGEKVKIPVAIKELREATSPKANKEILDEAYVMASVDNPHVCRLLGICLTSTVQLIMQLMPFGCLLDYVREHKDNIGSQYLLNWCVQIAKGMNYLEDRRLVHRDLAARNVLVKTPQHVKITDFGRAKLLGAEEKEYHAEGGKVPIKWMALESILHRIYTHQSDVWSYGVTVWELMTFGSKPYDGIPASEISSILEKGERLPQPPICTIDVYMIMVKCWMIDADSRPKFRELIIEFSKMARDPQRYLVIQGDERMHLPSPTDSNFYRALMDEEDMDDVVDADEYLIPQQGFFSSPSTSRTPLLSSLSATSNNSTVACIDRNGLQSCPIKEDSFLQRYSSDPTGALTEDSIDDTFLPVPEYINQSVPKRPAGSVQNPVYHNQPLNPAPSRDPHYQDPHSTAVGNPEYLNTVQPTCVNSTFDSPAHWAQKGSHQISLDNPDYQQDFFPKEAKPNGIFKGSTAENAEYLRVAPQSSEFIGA
- condition context: h1975
Reported GI50 is given for each of the following compounds.

- structure string: "C=CC(=O)Nc1cccc(Oc2nc(Nc3cccc(OC)c3OC)ncc2Br)c1"
  GI50: "500 to 1000 nM"
- structure string: "C=CC(=O)Nc1cccc(Oc2nc(Nc3ccc(OC)cc3OC)ncc2Br)c1"
  GI50: "500 to 1000 nM"
- structure string: "C=CC(=O)Nc1cccc(Oc2nc(Nc3ccc(OC)cc3OC)ncc2C(F)(F)F)c1"
  GI50: "100 to 500 nM"
- structure string: "C=CC(=O)Nc1cccc(Oc2nc(Nc3ccc(OC)c(OC)c3OC)ncc2Cl)c1"
  GI50: "100 to 500 nM"
- structure string: "C=CC(=O)Nc1cccc(Nc2nc(Nc3ccc(OC)c(OC)c3OC)ncc2C(F)(F)F)c1"
  GI50: "100 to 500 nM"
- structure string: "C=CC(=O)Nc1cccc(Oc2nc(Nc3ccc(OC)c(OC)c3OC)ncc2C(F)(F)F)c1"
  GI50: "100 to 500 nM"
- structure string: "C=CC(=O)Nc1cccc(Nc2nc(Nc3ccccc3OC)ncc2C(F)(F)F)c1"
  GI50: "100 to 500 nM"
- structure string: "C=CC(=O)Nc1cccc(Nc2nc(Nc3ccccc3OC)ncc2Br)c1"
  GI50: "500 to 1000 nM"

Source listed as the Kinase Knowledgebase extract (Sharma et al. 2016).
